- target.or.system: hYAK3 (Homo sapiens)
- Construct: made in house; host or cells: baculovirus expression system in Sf9 cells
- Sequence (O43781 124-526): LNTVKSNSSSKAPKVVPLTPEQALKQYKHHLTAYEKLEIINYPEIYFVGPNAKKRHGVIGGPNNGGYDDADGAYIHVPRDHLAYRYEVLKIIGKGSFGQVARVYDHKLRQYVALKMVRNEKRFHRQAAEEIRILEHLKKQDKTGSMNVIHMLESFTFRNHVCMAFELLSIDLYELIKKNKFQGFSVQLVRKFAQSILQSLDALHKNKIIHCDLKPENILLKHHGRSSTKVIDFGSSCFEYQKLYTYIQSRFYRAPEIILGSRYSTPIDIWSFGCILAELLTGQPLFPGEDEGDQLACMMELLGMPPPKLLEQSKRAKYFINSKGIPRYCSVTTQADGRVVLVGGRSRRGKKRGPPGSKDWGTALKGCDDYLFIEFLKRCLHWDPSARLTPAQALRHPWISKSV
- test.summary: YAK3 Scintillation Proximity Assay using Ser164 of myelin basic protein as phosphoacceptor (kinase assay of purified hYAK3)
- Assay type: biochemical
- condition.summary: purified GST-hYak3-His6 (aa 124-526), 0.001 mM ATP, 4 μM Ser164 peptide, 2 hours at room temperature; pIC50 = −log10(IC50)
pIC50: −log10 of the molar value.
experimental.endpoint: pIC50

Example results:
compound	experimental.endpoint	recorded.result
O=C(Nc1nc2ccc(-c3cc(=O)[nH]c(NCCc4ccc(Cl)cc4Cl)n3)cc2[nH]1)c1cccs1 [Ip]	pIC50	6.00 to 6.99
NS(=O)(=O)c1cccc(Nc2nc(-c3ccc4nc(NC(=O)c5cccs5)[nH]c4c3)cc(=O)[nH]2)c1 [Ig]	pIC50	8.00 to 8.99

Now, please, on to the next compound.
Request: Sample COCCNc1nc(-c2ccc3nc(NC(=O)c4cccs4)[nH]c3c2)cc(=O)[nH]1 [Il] — what was its pIC50?
Response: 7.00 to 7.99
